Would you mind telling me the reported GI50 of each entry?
# System: NCI-H23 lung
# experiment.description: NCI tumour cell line growth inhibition, 48 h

Ask: Request - read-out GI50 | tested on NCI-H23 lung | compound COc1cc2c(cc1OCCCn1c(-c3ccccn3)nc3ccccc31)N=C[C@@H]1CCCN1C2=O
Reply: 1.08 µM

Ask: Request - read-out GI50 | tested on NCI-H23 lung | compound COc1ccc(-c2cc(-c3ccc(C)cc3)nc3nc(=S)[nH]c(N)c23)cc1
Reply: 21.9 µM

Ask: Request - read-out GI50 | tested on NCI-H23 lung | compound O=C1C(=C([O-])c2ccccc2)C(=O)c2ccccc21.O=C1C(=C([O-])c2ccccc2)C(=O)c2ccccc21.[Fe+2]
Reply: 58.8 µM

Ask: Request - read-out GI50 | tested on NCI-H23 lung | compound CCOC(=O)C1=C(C)N(c2ccc(Cl)cc2)[C@]2(C#N)C(O)=C(Cl)C(Cl)=C(O)[C@]12C#N
Reply: > 100 µM

* * *

# System: HS 578T breast
# experiment.description: NCI tumour cell line growth inhibition, 48 h; in the data active = GI50 below about 0.43 µM; inactive = the rest
// allowed return values: Yes for active, No for inactive

Ask: In this assay, the call recorded for O=C(/C=C/c1cc2ccccc2[nH]c1=O)/C=C/c1cc2ccccc2[nH]c1=O was what?
Reply: No

Ask: In this assay, the call recorded for Cc1cc(S(=O)(=O)/N=C(/N)Nc2ccccc2O)c(SCc2ccccc2)cc1Cl was what?
Reply: No

Ask: In this assay, the call recorded for O=S(=O)(c1ccc(Cl)cc1)C(Cl)(Cl)Cl was what?
Reply: No

Ask: In this assay, the call recorded for COc1cccc(OC(=O)c2ccc(C(F)(F)F)nc2Nc2cc(Cl)ccc2C)c1 was what?
Reply: No

Ask: In this assay, the call recorded for O=[N+]([O-])c1ccc(C=Cc2ccccc2)cc1.[C-]#[O+].[C-]#[O+].[C-]#[O+].[Cr] was what?
Reply: No

Ask: In this assay, the call recorded for C1CCC([PH+](C2CCCCC2)C2CCCCC2[PH+](C2CCCCC2)C2CCCCC2)CC1.[Au].[CH-]1CCCCC1CC1CCCC[N-]1 (configuration not stated) was what?
Reply: Yes

Ask: In this assay, the call recorded for CC(C)C[C@H](NC(=O)CNC(=O)c1cc(Cl)ccc1Cl)B1OC(=O)CC(CC(=O)O)(C(=O)O)O1 (some centres not stated) was what?
Reply: Yes

Ask: In this assay, the call recorded for CC(C)NCCCn1c(Sc2cc3c(cc2I)OCO3)nc2c(N)ncnc21 was what?
Reply: No

Ask: In this assay, the call recorded for OCC1OC(n2cnc3c(N/N=C\c4ccccn4)ncnc32)C(O)C1O (configuration not stated) was what?
Reply: No

Ask: In this assay, the call recorded for CN(C)CCCn1c(=O)c2ccccc2c2ccccc21 was what?
Reply: No

Ask: In this assay, the call recorded for O=C1NC(=O)C(N2C(=O)c3ccccc3C2=O)CC1O (configuration not stated) was what?
Reply: No

Ask: In this assay, the call recorded for CC(=O)OC12C=C(C)C(C(C)C1)C1C(=O)N(CCN3CCOCC3)C(=O)C12 (configuration not stated) was what?
Reply: No

* * *

# System: SNB-19 CNS
# experiment.description: NCI tumour cell line growth inhibition, 48 h
Would you mind telling me the reported TGI of each entry?

Ask: Which TGI value is on record for O=c1ssc(=Nc2ccccc2)n1-c1ccccc1 ?
Reply: > 100 µM

Ask: Which TGI value is on record for O=C1NC(=O)C(N2C(=O)c3ccccc3C2=O)CC1O (centres undefined) ?
Reply: > 100 µM

Ask: Which TGI value is on record for CO[C@H]1CC(O[C@@H]2/C(C)=C/C[C@@H]3C[C@@H](C[C@]4(C=C[C@H](C)[C@@H](C5CCCCC5)O4)O3)OC(=O)[C@@H]3C=C(C)[C@@H](O)[C@H]4OC/C(=C\C=C\[C@@H]2C)[C@]43O)O[C@@H](C)C1O[C@H]1C[C@H](OC)[C@@H](O)[C@H](C)O1 (some centres undefined) ?
Reply: 6.52 µM

Ask: Which TGI value is on record for CCCc1c(-c2ccccc2)[nH]c2ccccc2c1=O ?
Reply: > 100 µM

* * *

# Tested on: CCRF-CEM leukemia
# experiment.description: NCI tumour cell line growth inhibition, 48 h
Binary classification by TGI, with 20 µM as an inclusive lower bound for fulfilled; all other cases are not fulfilled.

Ask: Would you say CC(=O)NC(CCCNC(=O)N(CCCl)N=O)C(=O)NCc1ccccc1 (stereo not given) shows TGI at minimum 20 µM?
Reply: fulfilled

Ask: Would you say CCC1(c2ccccc2)C(=O)N=C(c2ccccc2)N1CCc1ccccc1 (stereo not given) shows TGI at minimum 20 µM?
Reply: fulfilled

Ask: Would you say CNCCCNCCCCNCCCN1C(=O)c2ccc3c4c(ccc(c24)C1=O)C(=O)N(CCCNCc1ccccc1OC)C3=O shows TGI at minimum 20 µM?
Reply: fulfilled

Ask: Would you say O=C1OCC2=C1C(c1ccc(Cl)c(Cl)c1)c1cc3c(cc1N2CCO)OCCO3 (stereo not given) shows TGI at minimum 20 µM?
Reply: not fulfilled

Ask: Would you say C=CCC1(OCc2ccccc2)C(=O)C(=O)OC1C1COC(C)(C)O1 (stereo not given) shows TGI at minimum 20 µM?
Reply: fulfilled

Ask: Would you say COc1cc(/C=C/c2nc(NC(=S)Nc3ccccc3)nnc2C)cc(OC)c1OC shows TGI at minimum 20 µM?
Reply: fulfilled

Ask: Would you say C[N+](C)(C)CCc1ccccc1 shows TGI at minimum 20 µM?
Reply: fulfilled

Ask: Would you say CN=c1ccc2nc3ccc(N)cc3sc-2c1 shows TGI at minimum 20 µM?
Reply: not fulfilled

Ask: Would you say C[C@]12CC[C@@H]3c4cc(OCC(F)(F)F)c(O)cc4CC[C@H]3[C@@H]1CC[C@@H]2O shows TGI at minimum 20 µM?
Reply: not fulfilled

* * *

# Tested on: RPMI-8226 leukemia
# experiment.description: NCI tumour cell line growth inhibition, 48 h
metric: log10(TGI) (log10 of the value in µM)
Would you kindly interpret these values as log10 of TGI expressed in µM?

Ask: Which log10(TGI) value is on record for O=C(c1ccccc1)c1ccc2nc(-c3c(Cl)c(Cl)c(Cl)c(Cl)c3C(=O)N/N=C/c3ccc(Cl)cc3)[nH]c2c1 ?
Reply: 1.71

Ask: Which log10(TGI) value is on record for O=C(Nc1ccc(OCc2nnc(-c3ccc(Cl)cc3)o2)c(F)c1)Nc1ccc(Cl)c(C(F)(F)F)c1 ?
Reply: 0.91

Ask: Which log10(TGI) value is on record for COc1cc(/C=C/c2nc(NC(=S)Nc3ccccc3)nnc2C)cc(OC)c1OC ?
Reply: 1.83

Ask: Which log10(TGI) value is on record for O=C1OC(=O)C(=C\c2ccc3c(c2)OCO3)/C1=C/c1ccc2c(c1)OCO2 ?
Reply: 1.99

Ask: Which log10(TGI) value is on record for Cc1[nH]c2ccccc2c1C(=O)CC1(O)C(=O)Nc2c(Cl)cc(Cl)cc21 (configuration not stated) ?
Reply: 1.73

Ask: Which log10(TGI) value is on record for Cc1ccc2c(C3Cc4ccccc4N3C(=O)/C=C\C(=O)O)c(C)[nH]c2c1 (configuration not stated) ?
Reply: 1.90

Ask: Which log10(TGI) value is on record for O=C1OCC2=C1C(c1ccc(Cl)c(Cl)c1)c1cc3c(cc1N2CCO)OCCO3 (configuration not stated) ?
Reply: 1.11

Ask: Which log10(TGI) value is on record for CCOc1ccccc1C(=O)N1CCN(c2cc(Cl)cc(Cl)c2)CC1 ?
Reply: 0.73

Ask: Which log10(TGI) value is on record for CO[C@H]1CC(O[C@@H]2/C(C)=C/C[C@@H]3C[C@@H](C[C@]4(C=C[C@H](C)[C@@H](C5CCCCC5)O4)O3)OC(=O)[C@@H]3C=C(C)[C@@H](O)[C@H]4OC/C(=C\C=C\[C@@H]2C)[C@]43O)O[C@@H](C)C1O[C@H]1C[C@H](OC)[C@@H](O)[C@H](C)O1 (some centres not stated) ?
Reply: 0.64

* * *

# System: DU-145 prostate
# experiment.description: NCI tumour cell line growth inhibition, 48 h; in the data active means GI50 below about 0.43 µM; inactive means the rest
// allowed return values: active, inactive

Ask: In this assay, the call recorded for O=C1NC(=O)C(N2C(=O)c3ccccc3C2=O)CC1O (centres undefined) was what?
Reply: inactive

Ask: In this assay, the call recorded for C1CCC([PH+](C2CCCCC2)C2CCCCC2[PH+](C2CCCCC2)C2CCCCC2)CC1.[Au].[CH-]1CCCCC1CC1CCCC[N-]1 (centres undefined) was what?
Reply: active

Ask: In this assay, the call recorded for COc1cc(N2C(=O)[C@H](O)C2c2ccc(SC)cc2)cc(OC)c1OC (some centres undefined) was what?
Reply: active

Ask: In this assay, the call recorded for CN[C@@H](C)C(=O)N[C@H](C(=O)N1CCC[C@H]1C(=O)Nc1sc(-c2ncco2)nc1-c1ccccc1)C1CCCCC1 was what?
Reply: inactive

Ask: In this assay, the call recorded for O=C(OCc1ccc2ccccc2n1)c1cn(C2CC2)c2cc(N3CCN(Cc4ccc5ccccc5n4)CC3)c(F)cc2c1=O was what?
Reply: inactive

Ask: In this assay, the call recorded for O=C1OCC2=C1C(c1ccccc1)c1cc3c(cc1N2)OCO3 (centres undefined) was what?
Reply: active

Ask: In this assay, the call recorded for COc1cc2nc(N3CCCC3)nc(NCCc3ccccc3)c2cc1OC was what?
Reply: inactive

Ask: In this assay, the call recorded for COc1cc2c(cc1OCCCn1c(-c3ccccn3)nc3ccccc31)N=C[C@@H]1CCCN1C2=O was what?
Reply: inactive

Ask: In this assay, the call recorded for O=C1CCC(N2Cc3cc(CNC(=O)C(F)(F)c4ccc(Cl)cc4)ccc3C2=O)C(=O)N1 (centres undefined) was what?
Reply: inactive

All values here come from PubChem BioAssay (NCI).
